Kd reference
- System name: T1, Qk-1-STAR (mouse, UniProt Q9QYS9 7-214)
- T1 sequence: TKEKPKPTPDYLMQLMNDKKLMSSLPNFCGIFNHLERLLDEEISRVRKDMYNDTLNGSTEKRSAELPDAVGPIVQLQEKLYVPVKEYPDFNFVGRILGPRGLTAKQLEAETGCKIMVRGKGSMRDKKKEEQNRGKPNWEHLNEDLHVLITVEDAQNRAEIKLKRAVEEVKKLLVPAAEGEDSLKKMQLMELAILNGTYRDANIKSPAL
- Protocol: EMSA; 10 mM Tris pH 8.0, 25 mM NaCl, 0.1 mM EDTA, 0.1 mg/mL tRNA, 5 ug/mL heparin, 0.01% IGEPAL CA630, room temperature, 3 h; EMSA gel 6% native, 0.5x TBE, 4 C
- Experimental parameters: protein: recombinant; tags: MBP fusion; chain copies: 2; label: 5' 32P (EMSA), 5' fluorescein (FP)
The answer is to be given in nM; state only the numeric part.

>>> numeric_result("UAUUUAAUUUCUUAUCUACUAAUAUCUA (ssRNA) [C21A TGE 28-mer]")
1.2

# ---- query binder ----
Q) Which Kd value belongs to UAUUUAAUUUCUUAUCUACUCAUAUCUA (ssRNA) [WT TGE 28-mer] ?
A) 49
